Reference source for all entries: PubChem BioAssay (NCI)

- Tested on: MDA-MB-468 breast
- TEST METHOD NOTES: NCI-60 one-dose screen, 48 h
- CONDITIONS USED: 10 µM unless noted
About 83,000 compounds went through this panel and 20% of them were active in at least one assay; those are over-represented in the sample as a whole. The source made the active and inactive calls. Rule for the calls: active = growth percent below 10; inactive = the rest.
Labels: active, inactive

compound=C[C@@H]1CC[C@@H]2[C@@H]1[C@H](OC(=O)/C=C/c1ccccc1)[C@]1(c3ccccc3)C[C@@H](NC(=O)CO)[C@@]2(C)O1 category=inactive
compound=Cn1c(=O)c2nc(/C=C/c3ccccc3)c(=O)[nH]c2n(C)c1=S category=inactive
compound=CCc1ccccc1-n1c(-c2ccc(Cl)cc2)cc(-c2ccc(OC)cc2)c(C#N)c1=O category=inactive
compound="COC1(CC[C@@H](C)COC2OC(CO)C(O)C(O)C2O)O[C@H]2C[C@H]3[C@@H]4CC=C5C[C@@H](OC6OC(CO)C(OC7OC(C)C(O)C(O)C7O)C(O)C6OC6OC(C)C(O)C(O)C6O)CC[C@]5(C)[C@H]4CC[C@]3(C)[C@H]2[C@@H]1C (some centres undefined)" category=active
compound=COc1ccc(Cl)cc1NC(=O)c1c(NC(=O)C(F)(F)C(F)(F)F)sc2c1CCCCC2 category=active
compound=CCc1cc(OC(=O)N2CCC(N3CCCCC3)CC2)ccc1Nc1cc(-c2ccc(-n3cccn3)cc2)[nH]n1 category=inactive
compound="O=NN(C(=O)NC1CCC(C(=O)O)CC1)C1CCC(C(=O)O)CC1 (centres undefined)" category=inactive
compound=C[C@@H](c1ccc2c(c1)[nH]c1ccc(Cl)cc12)c1nc2ccccc2[nH]1 category=active
compound=COc1cc(/C=C/c2nnc(-c3cc(-c4ccccc4)n[nH]3)o2)cc(OC)c1OC category=inactive

----------
- System: RXF 393 renal
- TEST METHOD NOTES: NCI-60 one-dose screen, 48 h (100 = growth as untreated, 0 = no growth, -100 = all killed)
- CONDITIONS USED: 10 µM
Compounds without any hit were thinned out: in the full panel of roughly 83,000, 20% have a hit.
// boundary case: growth equal to 40% maps to Not met; strictly smaller maps to Met

compound=O=C(CSc1nc2ccccc2c(=O)n1-c1ccc(Cl)cc1)Nc1ccc(-c2nc3ccccc3[nH]2)cc1 category=Met
compound=COc1cc(Nc2nc(O)c(/C=C3\C=Nc4ccccc43)s2)cc(OC)c1OC category=Met
compound=Cc1ccc2c(c1)C(=O)/C(=C/c1c[nH]c3ccccc13)S2 category=Met
compound=Cc1ccc(S(=O)(=O)N2CCN(S(=O)(=O)c3oc(-c4ccccc4)nc3C#N)CC2)cc1 category="Not met"
compound=Cn1cc(-c2nnc(N)nc2-c2c[nH]c3ccccc23)c2cc(Br)cnc21 category=Met
compound=C#C[C@]1(O)CC[C@H]2[C@@H]3CC=C4c5sc(Nc6cc(C)cc(C)n6)nc5CC[C@]4(C)[C@H]3CC[C@@]21C category=Met
compound=COc1cc2oc(-c3cccc(C(=O)Nc4ccc(Cl)cc4)c3)cc(=O)c2c(OCCNC(=O)[C@@H](N)CO)c1OC category="Not met"
compound=COc1ccc(NCc2cn(-c3ccc(C(=O)O)cc3)nc2-c2ccc(F)cc2)cc1C(F)(F)F category="Not met"
compound=COC(=O)CNC(=O)COc1c(OC)c(OC)cc2oc(-c3cccc(C(=O)Nc4ccc(Cl)cc4)c3)cc(=O)c12 category="Not met"
compound="CCOC(=O)C1=C(N)N(c2ccc(C)cc2)C2=C(C(=O)CC(C)(C)C2)C1c1ccccc1Br (configuration not stated)" category="Not met"
compound="CCOC(=O)c1ccc(NC(=O)CSC(CC(=O)c2sc(Nc3ccccn3)nc2C)c2ccccc2F)cc1 (configuration not stated)" category=Met
compound="CC1(C)CC[C@]2(C(=O)O)CC[C@]3(C)C(=CCC4[C@@]5(C)C[C@@H](O)[C@@H]6OC(c7cccc(F)c7)OC[C@@]6(C)C5CC[C@]43C)C2C1 (some centres not stated)" category="Not met"
compound=COc1ccc(Cc2nn(CC(=O)N/N=C/c3ccc([N+](=O)[O-])cc3)c(=O)c3c(C)noc23)cc1 category="Not met"
compound=Fc1ccc(-c2csc(Nc3cccc(Nc4nc(-c5ccc(F)cc5)cs4)c3)n2)cc1 category="Not met"
compound=COc1cc2oc(-c3cccc(C(=O)Nc4ccc(Cl)cc4)c3)cc(=O)c2c(OCCN)c1OC category=Met
compound=CCOc1ccc(/C=N/NC(=O)Cn2nc(Cc3ccc(OC)cc3)c3onc(C)c3c2=O)cc1 category=Met
